Assay: APR_HepG2_p53Act_72hr: Apredica 72-hour HepG2 Assay for p53 Activation (AID 2282923);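 note: average cellular p53 protein immunofluorescence intensity in HepG2 cells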
Conditions: high-content imaging, actives raise or lower the signal
Experimental: APR_HepG2_72hr is a cell-based, multiplexed-readout assay that uses HepG2, a human liver cell line, with measurements taken at 72 hours after chemical dosing in a 384-well plate.APR_HepG2_p53Act_72hr is one of 10 assay component(s) measured or calculated from the APR_HepG2_72hr assay. […] This assay endpoint, APR_HepG2_p53Act_72hr, was analyzed with bidirectional fitting relative to DMSO as the negative control and baseline of activity. […]
Activity calls are given as the source filed them. Rule for the calls: active = hit-call score of the fitted dose curve at least 0.9, where 1 is the maximum; inactive = score below 0.9.
Labels: y (active), n (inactive)

{"columns": ["Compound", "Label Class"],
 "data": [
  ["Brc1ccc(Oc2ccccc2)cc1", "n"],
  ["CCCCCCCCn1sccc1=O", "y"],
  ["[O-][Cl+]O", "n"],
  ["Cc1ccc(N=C=O)cc1N=C=O", "n"],
  ["Nc1ccc(Oc2ccc(N)cc2)cc1", "n"],
  ["CN(C)c1ccccc1", "n"],
  ["ClCCOCCCl", "n"],
  ["CC(O)CCO (centres undefined)", "n"],
  ["CNC(=O)Oc1cccc2c1OC(C)(C)C2", "n"],
  ["CCN(CC)N=O", "n"],
  ["CN(C)[C@@H]1C(=O)C(C(N)=O)=C(O)[C@@]2(O)C(=O)C3=C(O)c4c(O)cccc4[C@@](C)(O)[C@H]3C[C@@H]12", "n"],
  ["Nc1ccc(N=Nc2ccccc2)cc1", "y"],
  ["CCC(C)c1ccc(O)cc1 (centres undefined)", "n"],
  ["CC(C)(C)OOC(C)(C)CCC(C)(C)OOC(C)(C)C", "n"]
]}

====

Read-out: Nuclear factor erythroid 2-related factor 2 (Homo sapiens)
Assay: LTEA_HepaRG_NFE2L2: Life Technologies and Expression Analysis (LTEA) Assay for Nuclear factor erythroid 2-related factor 2 (NFE2L2) Transcription Factor using HepaRG (AID 2283527);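 for Outcome: TaqMan qRT-PCR transcript level normalised to ACTB GAPDH and POLR2A housekeeping genes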
Details: mRNA level, 48 h; actives raise or lower the signal
Calls of active or inactive are those of the source. The calls were made as follows: active = hit-call score of the fitted dose curve at least 0.9, where 1 is the maximum; inactive = score below 0.9.
Outcome codes: yes for active, no for inactive

{"columns": ["Molecule", "Label Class"],
 "data": [
  ["Clc1ccccc1Cl", "no"],
  ["Clc1ccc(Cl)c(Cl)c1", "no"],
  ["C=CCc1ccc2c(c1)OCO2", "no"],
  ["CS(=O)(=O)NC(=O)c1cc(Oc2ccc(C(F)(F)F)cc2Cl)ccc1[N+](=O)[O-]", "no"],
  ["COc1cc(C=O)cc2c1[C@H](COC(N)=O)[C@]1(OC(C)=O)ON2C[C@H]2[C@@H]1N2C(C)=O", "yes"],
  ["CCN(CC)CCO", "no"],
  ["CN(C)[C@@H]1C(=O)C(C(N)=O)=C(O)[C@@]2(O)C(=O)C3=C(O)c4c(O)cccc4[C@@](C)(O)[C@H]3C[C@@H]12", "no"],
  ["COC(=O)c1ccccc1N", "no"],
  ["Cc1cc(N=Nc2ccccc2C)ccc1N", "yes"],
  ["Nc1ccc(N=Nc2ccccc2)cc1", "no"],
  ["Nc1ccc([N+](=O)[O-])cc1", "no"],
  ["O=C(O)C1C2CCC(O2)C1C(=O)O (centres undefined)", "no"],
  ["[Cl-].[Cl-].[Hg+2]", "no"],
  ["Nc1cc(Cl)cc(C(=O)O)c1Cl", "no"]
]}

====

Read-out: Interferon-gamma inducible Protein 10 (IP10), CXCL10 (gene 3627)
Experiment: BSK_hDFCGF_IP10: BioMAP Diversity Plus: hDFCGF Assay for Interferon-gamma inducible Protein 10 (IP10) Biomarker Activity (AID 2283053)
Conditions: primary human foreskin fibroblasts; actives raise or lower the signal
Activity calls are given as the source filed them. How the source made its calls: active means hit-call score of the fitted dose curve at least 0.9, where 1 is the maximum; inactive means score below 0.9.
Measure Name: AC50

{"columns": ["Compound", "Measure Name", "Result"],
 "data": [
  ["CO[C@@H]1[C@H](OC(=O)NC(=O)CCl)CC[C@]2(CO2)[C@H]1[C@@]1(C)O[C@@H]1CC=C(C)C", "AC50", "5.48 µM (active)"],
  ["COC(=O)c1ccccc1N", "AC50", "inactive"],
  ["CCCCCCCCCCCCCN1CC(C)OC(C)C1 (stereo not drawn)", "AC50", "inactive"],
  ["ClC1=C(Cl)[C@]2(Cl)[C@H]3[C@H]([C@@H]4C=C[C@H]3C4)[C@@]1(Cl)C2(Cl)Cl", "AC50", "19.3 µM (active)"],
  ["c1ccc(NNc2ccccc2)cc1", "AC50", "inactive"],
  ["CCOC(=O)[C@]1(c2ccccc2)Oc2ccccc2[C@@H]1N", "AC50", "36.6 µM (active)"],
  ["O=P(OCCCl)(OCCCl)OCCCl", "AC50", "inactive"],
  ["ClCCOCCCl", "AC50", "inactive"],
  ["Clc1ccc(Cl)c(Cl)c1", "AC50", "inactive"],
  ["CCC(C)c1ccc(O)cc1 (stereo not drawn)", "AC50", "inactive"],
  ["C1=Cc2cccc3cccc1c23", "AC50", "inactive"],
  ["CCCCCCCCOC(=O)c1ccc(C(=O)OCCCCCCCC)c(C(=O)OCCCCCCCC)c1", "AC50", "inactive"],
  ["COC(=O)Nc1nc2ccccc2[nH]1", "AC50", "inactive"]
]}

====

Target: Nuclear receptor subfamily 1 group I member 2 (Homo sapiens) (UniProt O75469)
Sequence (O75469 whole entry, looked up): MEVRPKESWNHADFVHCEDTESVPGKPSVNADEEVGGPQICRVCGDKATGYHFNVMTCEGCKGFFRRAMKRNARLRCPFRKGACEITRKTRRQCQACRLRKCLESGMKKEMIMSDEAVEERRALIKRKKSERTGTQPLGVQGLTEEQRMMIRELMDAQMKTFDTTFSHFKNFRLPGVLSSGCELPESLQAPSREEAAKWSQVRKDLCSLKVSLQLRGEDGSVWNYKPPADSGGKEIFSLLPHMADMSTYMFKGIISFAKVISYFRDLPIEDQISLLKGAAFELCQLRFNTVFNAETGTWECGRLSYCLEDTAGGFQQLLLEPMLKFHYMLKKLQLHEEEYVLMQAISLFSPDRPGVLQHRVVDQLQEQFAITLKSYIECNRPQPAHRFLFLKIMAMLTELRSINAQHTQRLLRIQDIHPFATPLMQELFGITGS
Experiment: ATG_PXR_TRANS: Attagene TRANS-FACTORIAL HepG2 Assay for human Pregnane X Receptor (PXR) (AID 2283008)
Method: ATG_TRANS is a cell-based, multiplexed-readout assay that uses HepG2, a human liver cell line, with measurements taken at 24 hours after chemical dosing in a 24-well plate.ATG_PXR_TRANS is one of 30 assay component(s) measured or calculated from the ATG_TRANS assay. […] This assay endpoint, ATG_PXR_TRANS, was analyzed in the positive analysis fitting direction relative to DMSO as the negative control and baseline of activity. […]
Results filed as inconclusive are left out. The source made the active and inactive calls. The calls were made as follows: active = hit-call score of the fitted dose curve at least 0.9, where 1 is the maximum; inconclusive = response in the unintended direction; inactive = score below 0.9.
Outcome codes: y = active, n = inactive

{"columns": ["Molecule", "System Tested", "Label Class"],
 "data": [
  ["ClC1=C(Cl)[C@]2(Cl)[C@H]3[C@H]([C@@H]4C=C[C@H]3C4)[C@@]1(Cl)C2(Cl)Cl", "Nuclear receptor subfamily 1 group I member 2 (Homo sapiens) (UniProt O75469)", "y"],
  ["Clc1ccc(C(c2ccc(Cl)cc2)C(Cl)Cl)cc1", "Nuclear receptor subfamily 1 group I member 2 (Homo sapiens) (UniProt O75469)", "y"],
  ["CC(C)(OOC(C)(C)c1ccccc1)c1ccccc1", "Nuclear receptor subfamily 1 group I member 2 (Homo sapiens) (UniProt O75469)", "y"],
  ["[Cl-].[Cl-].[Hg+2]", "Nuclear receptor subfamily 1 group I member 2 (Homo sapiens) (UniProt O75469)", "n"],
  ["CNC(=O)Oc1cccc2c1OC(C)(C)C2", "Nuclear receptor subfamily 1 group I member 2 (Homo sapiens) (UniProt O75469)", "n"],
  ["CCCCC(CC)COC(=O)c1ccc(C(=O)OCC(CC)CCCC)c(C(=O)OCC(CC)CCCC)c1 (stereo not given)", "Nuclear receptor subfamily 1 group I member 2 (Homo sapiens) (UniProt O75469)", "n"],
  ["Cc1cccc(N)c1N", "Nuclear receptor subfamily 1 group I member 2 (Homo sapiens) (UniProt O75469)", "n"],
  ["CCCCCCCCn1sccc1=O", "Nuclear receptor subfamily 1 group I member 2 (Homo sapiens) (UniProt O75469)", "y"],
  ["O=P(OCCCl)(OCCCl)OCCCl", "Nuclear receptor subfamily 1 group I member 2 (Homo sapiens) (UniProt O75469)", "n"],
  ["O=C(Nc1ccccc1)c1ccccc1I", "Nuclear receptor subfamily 1 group I member 2 (Homo sapiens) (UniProt O75469)", "y"],
  ["Brc1ccc(Oc2ccccc2)cc1", "Nuclear receptor subfamily 1 group I member 2 (Homo sapiens) (UniProt O75469)", "n"],
  ["c1ccc(N=Nc2ccccc2)cc1", "Nuclear receptor subfamily 1 group I member 2 (Homo sapiens) (UniProt O75469)", "n"],
  ["c1ccc(NNc2ccccc2)cc1", "Nuclear receptor subfamily 1 group I member 2 (Homo sapiens) (UniProt O75469)", "n"],
  ["Oc1ccccc1Cl", "Nuclear receptor subfamily 1 group I member 2 (Homo sapiens) (UniProt O75469)", "n"],
  ["CC(O)CCO (stereo not given)", "Nuclear receptor subfamily 1 group I member 2 (Homo sapiens) (UniProt O75469)", "y"],
  ["COP(=S)(OC)SCN1C(=O)c2ccccc2C1=O", "Nuclear receptor subfamily 1 group I member 2 (Homo sapiens) (UniProt O75469)", "n"],
  ["O=[N+]([O-])c1ccc(Oc2ccc(Cl)cc2Cl)cc1", "Nuclear receptor subfamily 1 group I member 2 (Homo sapiens) (UniProt O75469)", "y"],
  ["CCCCCCCCCCCCCN1CC(C)OC(C)C1 (stereo not given)", "Nuclear receptor subfamily 1 group I member 2 (Homo sapiens) (UniProt O75469)", "y"],
  ["O=C(O)C1C2CCC(O2)C1C(=O)O (stereo not given)", "Nuclear receptor subfamily 1 group I member 2 (Homo sapiens) (UniProt O75469)", "n"],
  ["CCCSC(=O)N(CCC)CCC", "Nuclear receptor subfamily 1 group I member 2 (Homo sapiens) (UniProt O75469)", "n"],
  ["N#CC(Br)Br", "Nuclear receptor subfamily 1 group I member 2 (Homo sapiens) (UniProt O75469)", "n"],
  ["CN(C)[C@@H]1C(=O)C(C(N)=O)=C(O)[C@@]2(O)C(=O)C3=C(O)c4c(O)cccc4[C@@](C)(O)[C@H]3C[C@@H]12", "Nuclear receptor subfamily 1 group I member 2 (Homo sapiens) (UniProt O75469)", "n"],
  ["CCCCOC(=O)c1ccccc1C(=O)OCc1ccccc1", "Nuclear receptor subfamily 1 group I member 2 (Homo sapiens) (UniProt O75469)", "n"],
  ["Nc1ccc(Cl)cc1N", "Nuclear receptor subfamily 1 group I member 2 (Homo sapiens) (UniProt O75469)", "n"],
  ["[O-][Cl+]O", "Nuclear receptor subfamily 1 group I member 2 (Homo sapiens) (UniProt O75469)", "n"]
]}
